Just for reference, ChEMBL document CHEMBL1201862 is where these values come from.

Molecular target: Ubiquitin-conjugating enzyme E2 N (Homo sapiens);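 note: Dose-response confirmation in a TR-FRET assay detecting UBC13-driven polyubiquitin chain formation, inhibition measured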
Sequence (P61088 whole entry): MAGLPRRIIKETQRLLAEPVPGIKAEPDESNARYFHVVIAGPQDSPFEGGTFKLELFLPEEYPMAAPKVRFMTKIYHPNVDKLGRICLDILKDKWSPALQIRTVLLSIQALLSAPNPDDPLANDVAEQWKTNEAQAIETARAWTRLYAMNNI
Assay type: functional
Counter-ions that a name gives are not always drawn. Active and inactive are the calls of the source.
Choose the fitting class; nothing outside active, inactive is accepted.

Data request: How was CCN(Cc1ccccc1)S(=O)(=O)c1ccc(C(=O)N(CCCN(C)C)c2nc3cc4c(cc3s2)OCCO4)cc1 classified in this test?
Data returned: active

Data request: How was CN1CCCC(CC2c3ccccc3Sc3ccccc32)C1 (stereo not drawn) [METHIXENE HYDROCHLORIDE] classified in this test?
Data returned: inactive

Data request: How was CCCCCCOc1ccc(/C(C)=N/NC2=NCCN2)cc1 classified in this test?
Data returned: inactive

Data request: How was CC[C@@H](C)[C@H](CN[C@H](CNC)C(C)C)NC[C@@H](C)c1ccc(CC(C)C)cc1 classified in this test?
Data returned: inactive

Data request: How was CC1(C)Cc2c(sc(NC(=O)C(=O)NCCCN3CCOCC3)c2C(N)=O)CO1 classified in this test?
Data returned: active

Data request: How was CCOC(=O)c1c(C)n(-c2ccc(C)cc2)c2ccc(OCC(O)CNCCCO)cc12 (stereo not drawn) classified in this test?
Data returned: inactive

Data request: How was C=C(C)CN=C(S)N=Nc1c(O)[nH]c2ccc([N+](=O)[O-])cc12 classified in this test?
Data returned: inactive

Data request: How was O=[N+]([O-])c1c(-c2cn[nH]c2)n[nH]c1-c1cn[nH]c1 classified in this test?
Data returned: inactive

Data request: How was COc1cccc(/C=C2/Sc3ccc(C(=O)NCCN4CCCCCC4)cc3NC2=O)c1 classified in this test?
Data returned: inactive

Data request: How was O=C1c2cccc3cccc(c23)C(=O)N1CCN1CCN(CC(O)COCc2ccc(Cl)cc2)CC1 (stereo not drawn) classified in this test?
Data returned: active

Data request: How was CC(=O)Nc1ccc(S(=O)(=O)N2CCN(CC(O)COc3ccc4ccccc4c3)CC2)cc1 (stereo not drawn) classified in this test?
Data returned: inactive

Data request: How was Oc1ccc(NC(=S)N=Nc2c(O)[nH]c3ccccc23)cc1 classified in this test?
Data returned: active

Data request: How was COc1cccc(OCC(O)CN2CCN(CCN3C(=O)c4cccc5cccc(c45)C3=O)CC2)c1 (stereo not drawn) classified in this test?
Data returned: inactive

====

experiment: Luminescence Cell-Based Dose Retest to Confirm Inhibitors of Cancer Stem Cells. [Related pubchem assays (depositor defined):AID2717, AID2721]; format: functional; conditions: Homo sapiens
The source made the active and inactive calls.
Would you kindly list AC50 for each of these compounds?

Data request: What value of AC50 has been reported for the following compound? COc1ccc(C(=O)Nc2ccc(OCC(F)(F)C(F)F)c(C(F)(F)F)c2)cc1OC
Data returned: 3.78 µM (active)

Data request: What value of AC50 has been reported for the following compound? Cc1ccc(NC(=O)/C=C/c2ccc([N+](=O)[O-])s2)c(C)c1
Data returned: 1.3 µM (active)

Data request: What value of AC50 has been reported for the following compound? Cc1cc(Nc2ccccc2)nc(-c2ccccc2O)n1
Data returned: 5.64 µM (active)

Data request: What value of AC50 has been reported for the following compound? Cc1nc(NC(=O)c2ccco2)sc1-c1csc(Nc2ccc(Cl)cc2)n1
Data returned: 2.03 µM (active)

Data request: What value of AC50 has been reported for the following compound? COc1ccc(Nc2nnc(-c3ccccc3)c3ccccc23)cc1C(=O)N1CCCCC1
Data returned: 31.2 µM (active)

Data request: What value of AC50 has been reported for the following compound? C=CCn1c(O)nnc1Sc1ncc([N+](=O)[O-])s1
Data returned: 1.85 µM (active)

Data request: What value of AC50 has been reported for the following compound? CCCCCCOc1ccc(/C(C)=N/NC2=NCCN2)cc1
Data returned: 3.05 µM (active)
